Provide the recorded Population Apoptotic (%) for the entries that follow.
- Tested on: U2OS
- test.protocol: Multiplex assay against U2OS
- Assay type: toxicity, cell-based
- assay.setup: human, 12 h, 1 µM, compound concentration 1 uM, replicate 1
Write down the numeric answer in % and omit the unit.

Tell me the measured Population Apoptotic (%) of `CN(c1cc(C(F)(F)F)nc(OCCC(=O)O)n1)c1cccc2c1CCC2` , please. 33

Fill blank: measured Population Apoptotic (%) of the compound `C[C@@H](Oc1cc(-n2cnc3ccc(CN4CCN(C)CC4)cc32)sc1C(N)=O)c1ccccc1C(F)(F)F` is ____. 55

Could you tell me which Population Apoptotic (%) is on file for `CCCc1cc(C)[nH]c(=O)c1CNC(=O)c1cc(-c2ccc(N3CCN(C(C)C)CC3)nc2)cc2c1cnn2C(C)C` ? 64

Recorded Population Apoptotic (%) of `CC(C)[C@H](CO)Nc1nc(Nc2cccc(Cl)c2)c2ncn(C(C)C)c2n1` , please. 58

// data source = ChEMBL document CHEMBL4689842
